test system: LPS-stimulated heparinized whole human blood; experiment: Release of IL1β, TNFα and IL6 in LPS-stimulated heparinized whole human blood; assay type: cell-based; settings: 24 h, read-out: TNFα release IC50
pIC50: −log10 of the molar value.
Property: pIC50; scope: individual compounds

# Line notation, Target or test system, pIC50
records = [
    ("COc1cccc(-c2nc3c(C)n[nH]c3c3ccccc23)c1", "LPS-stimulated heparinized whole human blood", 5.92),
    ("Cc1n[nH]c2c1nc(-c1cccc(O)c1)c1ccccc12", "LPS-stimulated heparinized whole human blood", 5.30),
    ("c1ccc(-c2nc3c(-c4ccccc4)n[nH]c3c3ccccc23)cc1", "LPS-stimulated heparinized whole human blood", 4.90),
]

// provenance: patent EP1644371B1
